A collection of compounds and their measured pKi
molecular target: Human recombinant 6-His tagged cyclophilin D (CypD) (Homo sapiens); construct: 6-His; test: Protease-free PPIase assay, cyclophilin D; type: biochemical; details: human recombinant 6-His CypD, 10 °C, SUC-AAPF-pNA substrate; read-out: CypD Protease-free PPIase Assay Ki
Sequence (P30405 30-207): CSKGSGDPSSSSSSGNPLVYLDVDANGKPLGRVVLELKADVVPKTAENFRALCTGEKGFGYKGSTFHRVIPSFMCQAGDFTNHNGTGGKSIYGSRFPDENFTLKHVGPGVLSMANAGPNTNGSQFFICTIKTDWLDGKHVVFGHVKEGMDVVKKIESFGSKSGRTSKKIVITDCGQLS
Starred links: 1 amine or outer side, 2 acyl side, 3 side chain; linkers in the order of their positions; H or OH if unused. Non-standard residues stand in square brackets, D forms with d. Residues, ends and D or L forms follow the SMILES beside them. X1 = C[C@@H]1CCO[C@H]1[C@H](C(=O)[*:2])N(C)[*:1]; NMeL = CN[C@@H](CC(C)C)C(=O)O; dNMeL = CN[C@H](CC(C)C)C(=O)O; dNMeV = CN[C@@H](C(=O)O)C(C)C; dNMeA = CN[C@H](C)C(=O)O
Value format note: pKi is -log10 of concentration (mol/L); just state the number.

The reported pKi value, Human recombinant 6-His tagged cyclophilin D (CypD) (Homo sapiens), for CC(C)C[C@@H]1C(=O)N(C)[C@H](CC(C)C)C(=O)N(C)[C@H](C(C)C)C(=O)N(C)[C@H]([C@@H]2OCC[C@H]2C)C(=O)N[C@H](C(C)C)C(=O)N(C)[C@H](C)C(=O)N(C)[C@@H](CC(C)C)C(=O)N[C@H](C(C)C)C(=O)N(C)[C@H](CC(C)C)C(=O)N[C@H](C)C(=O)N[C@@H](C)C(=O)N1C [Compound 6] (cyclo(A[dNMeL][dNMeL][dNMeV][X1][dV][dNMeA][NMeL][dV][dNMeL][dA])) reads 8.72

Next:
With Human recombinant 6-His tagged cyclophilin D (CypD) (Homo sapiens) as the test system, CC[C@H]1NC(=O)[C@H]([C@H]2OCC[C@H]2C)N(C)C(=O)[C@@H](C(C)C)N(C)C(=O)[C@@H](CC(C)C)N(C)C(=O)[C@@H](CC(C)C)N(C)C(=O)[C@H](C)NC(=O)[C@@H](C)NC(=O)[C@@H](CC(C)C)N(C)C(=O)[C@@H](C(C)C)NC(=O)[C@H](CC(C)C)N(C)C(=O)[C@@H](C)N(C)C1=O [Compound 18] showed pKi of 7.82
